Catalogue of inhibition values
- assay_name: growth suppression of yeast trafficking mutant, preliminary HTS, modulators of trafficking downstream of Golgi apparatus project, 1536-format plate, OD 615 nm (AID 637); note: test concentration not given here
- settings: yeast transport mutant growth, absorbance 615 nm, 18 h; active compounds read high

- compound: "COc1cccc(OCCSc2nnc3sc4ccccc4n23)c1"
  unit_abbreviation: "%"
  inhibition: 0.66
- compound: "COc1ccc(C(NC(C)=O)c2ccc3cccnc3c2O)c(OC)c1 (configuration not stated)"
  unit_abbreviation: "%"
  inhibition: 1.09
- compound: "CCOC(=O)C1CCN(C(C)=C2C(=O)c3ccccc3C2=O)CC1"
  unit_abbreviation: "%"
  inhibition: 7.26
- compound: "CCCCn1c(SCC(=O)NCc2ccccc2)nc2ccc(N3CCOCC3)cc2c1=O"
  unit_abbreviation: "%"
  inhibition: 1.8
- compound: "CC(C)(C)c1ccc(OCC(=O)O)cc1"
  unit_abbreviation: "%"
  inhibition: 8.69
- compound: "O=C(CCSc1nc(-c2ccco2)cc(C(F)(F)F)n1)NCCc1ccccc1"
  unit_abbreviation: "%"
  inhibition: 1.11
- compound: "O=C(c1ccc(F)cc1)C1CCN(CCn2c(=O)[nH]c3ccccc3c2=O)CC1"
  unit_abbreviation: "%"
  inhibition: 1.33
- compound: "CCOc1ccc(C2C(C(=O)OC)=CN(CCOC)C=C2C(=O)OC)cc1"
  unit_abbreviation: "%"
  inhibition: -1.33
- compound: "CC(C)n1nc(C(=O)Nc2nc3ccc(S(C)(=O)=O)cc3s2)c2ccccc2c1=O"
  unit_abbreviation: "%"
  inhibition: 2.73
- compound: "CCc1cc2c(=O)c(-c3cscn3)coc2cc1O"
  unit_abbreviation: "%"
  inhibition: 2.95
- compound: "CC(c1ccco1)N(Cc1ccco1)C(=O)Nc1ccccc1 (configuration not stated)"
  unit_abbreviation: "%"
  inhibition: 6.72
- compound: "CCn1nc(C(=O)O)c(=O)c2cc3c(cc21)OCO3"
  unit_abbreviation: "%"
  inhibition: 1.83
- compound: "Cc1nc2ccccc2c(=O)n1NC(=O)c1c(O)c2c(n(CC(C)C)c1=O)CCCC2"
  unit_abbreviation: "%"
  inhibition: 9.35
- compound: "CCOC(=O)Nc1ccc(NS(=O)(=O)c2ccc(C)cc2)cc1"
  unit_abbreviation: "%"
  inhibition: -7.42
- compound: "Cc1ccccc1NC(=O)CSc1nnc(Cc2cccn2C)n1-c1ccc(F)cc1"
  unit_abbreviation: "%"
  inhibition: -3.5
- compound: "CCCCOc1ccc(N(CC(=O)NC2CCCC2)C(=O)CCC(=O)Nc2ccccn2)cc1"
  unit_abbreviation: "%"
  inhibition: 2.95
- compound: "CCOC(=O)N(C)c1ccc(C(O)(C(F)(F)F)C(F)(F)F)cc1"
  unit_abbreviation: "%"
  inhibition: -6.55
- compound: "CCCC(=O)Nc1ccc(C(=O)O)cc1NC(=O)CCC"
  unit_abbreviation: "%"
  inhibition: 1.45
- compound: "O=P(CCNCc1ccco1)(c1ccccc1)c1ccccc1"
  unit_abbreviation: "%"
  inhibition: -4.18
- compound: "COc1ccc2c(c1)C(=O)N(c1ccccc1OC)C(=O)C2"
  unit_abbreviation: "%"
  inhibition: 0.32
- compound: "OC1(c2cccc(C(F)(F)F)c2)CCNCC1"
  unit_abbreviation: "%"
  inhibition: -3.02
- compound: "CC(C)CN1C(=O)c2ccc(C(=O)Nc3nccs3)cc2C1=O"
  unit_abbreviation: "%"
  inhibition: 0.63
- compound: "CS(=O)(=O)N(CC(=O)N1CCc2ccccc2C1)c1ccc2c(c1)OCO2"
  unit_abbreviation: "%"
  inhibition: 2.13
- compound: "COCCn1nnnc1C(c1cc2cc(C)cc(C)c2[nH]c1=O)N1CCN(c2ccccc2F)CC1 (configuration not stated)"
  unit_abbreviation: "%"
  inhibition: 1.8
- compound: "O=C1NCC(COCc2ccccc2)O1 (configuration not stated)"
  unit_abbreviation: "%"
  inhibition: 0
- compound: "CCn1c(SCC(=O)Nc2ccccc2F)nc2c(c1=O)SC(C)C2 (configuration not stated)"
  unit_abbreviation: "%"
  inhibition: 2.54
- compound: "CCSc1nc(-c2ccc(OC)cc2)ccc1C#N"
  unit_abbreviation: "%"
  inhibition: -1.27
- compound: "CC(C)COC(=O)C1C2C=CC3(CN(C(C)c4ccc(Br)cc4)C(=O)C13)O2 (configuration not stated)"
  unit_abbreviation: "%"
  inhibition: -5.74
- compound: "COc1ccc(CCNc2oc(-c3ccccc3OC)nc2C#N)cc1"
  unit_abbreviation: "%"
  inhibition: -11
- compound: "CCOC(=O)C1/C(=N\\O)CC(C)(O)C(C(=O)OCC)C1c1ccc(N(C)C)cc1 (configuration not stated)"
  unit_abbreviation: "%"
  inhibition: 5.48
- compound: "CCCc1nc(NCc2ccncc2)c2nnn(Cc3ccccc3F)c2n1"
  unit_abbreviation: "%"
  inhibition: -3.39
- compound: "O=c1c2[nH]c3ccc(Cl)cc3c2ncn1Cc1ccccn1"
  unit_abbreviation: "%"
  inhibition: -3.27
- compound: "O=C(O)CCCc1ccccc1"
  unit_abbreviation: "%"
  inhibition: 8
- compound: "OCCN1CCN(CCCN2c3ccccc3Sc3ccc(Cl)cc32)CC1"
  unit_abbreviation: "%"
  inhibition: 47.3
- compound: "COCCCNC(=O)CCCn1c(=O)c2ccccc2n(CC(=O)Nc2c(C)cccc2C)c1=O"
  unit_abbreviation: "%"
  inhibition: -1.31
- compound: "COC(=O)c1nc(N)sc1-c1ccccc1"
  unit_abbreviation: "%"
  inhibition: 1.43
- compound: "CCc1nnc(SCc2cn3c(C)cc(C)nc3n2)n1N"
  unit_abbreviation: "%"
  inhibition: -4.91
- compound: "Cc1ccc2cc(CN(Cc3ccc(F)cc3)Cc3nnnn3C3CCCC3)c(=O)[nH]c2c1"
  unit_abbreviation: "%"
  inhibition: 3.09
- compound: "Cc1nnc(SCC(=O)Nc2ccc3c(c2)OCCO3)n1CC1CCCO1 (configuration not stated)"
  unit_abbreviation: "%"
  inhibition: -3.33
- compound: "O=C(c1ncc[nH]1)c1ccccc1C(=O)N1CCOCC1"
  unit_abbreviation: "%"
  inhibition: 1.75
- compound: "CCOc1ccc(-c2nc(N)ncc2-c2ccccc2)c(O)c1"
  unit_abbreviation: "%"
  inhibition: -8.1
- compound: "COCCCN1C(=O)C(O)=C(C(C)=O)C1c1ccccn1 (configuration not stated)"
  unit_abbreviation: "%"
  inhibition: -1.45
- compound: "Cc1nc2ccc(C(=O)O)cc2c2c1CC(C)S2 (configuration not stated)"
  unit_abbreviation: "%"
  inhibition: 0.55
- compound: "NC(=O)c1oc2ccc(Cl)cc2c1NC(=O)CN1CCOCC1"
  unit_abbreviation: "%"
  inhibition: -2.36
- compound: "CN(C)Cc1cn(CCC(=O)O)c2ccccc12"
  unit_abbreviation: "%"
  inhibition: -1.8
- compound: "CSc1ccccc1C(=O)NC1CC2CCC1C2 (configuration not stated)"
  unit_abbreviation: "%"
  inhibition: 5.65
- compound: "N#CCc1nc(CSc2nc3ccccc3s2)cs1"
  unit_abbreviation: "%"
  inhibition: 3.02
